Where do these numbers come from? They come from patent US20120283280A1.

Test target: EGFR tyrosine kinase (Homo sapiens)
Sequence (P00533 25-1210): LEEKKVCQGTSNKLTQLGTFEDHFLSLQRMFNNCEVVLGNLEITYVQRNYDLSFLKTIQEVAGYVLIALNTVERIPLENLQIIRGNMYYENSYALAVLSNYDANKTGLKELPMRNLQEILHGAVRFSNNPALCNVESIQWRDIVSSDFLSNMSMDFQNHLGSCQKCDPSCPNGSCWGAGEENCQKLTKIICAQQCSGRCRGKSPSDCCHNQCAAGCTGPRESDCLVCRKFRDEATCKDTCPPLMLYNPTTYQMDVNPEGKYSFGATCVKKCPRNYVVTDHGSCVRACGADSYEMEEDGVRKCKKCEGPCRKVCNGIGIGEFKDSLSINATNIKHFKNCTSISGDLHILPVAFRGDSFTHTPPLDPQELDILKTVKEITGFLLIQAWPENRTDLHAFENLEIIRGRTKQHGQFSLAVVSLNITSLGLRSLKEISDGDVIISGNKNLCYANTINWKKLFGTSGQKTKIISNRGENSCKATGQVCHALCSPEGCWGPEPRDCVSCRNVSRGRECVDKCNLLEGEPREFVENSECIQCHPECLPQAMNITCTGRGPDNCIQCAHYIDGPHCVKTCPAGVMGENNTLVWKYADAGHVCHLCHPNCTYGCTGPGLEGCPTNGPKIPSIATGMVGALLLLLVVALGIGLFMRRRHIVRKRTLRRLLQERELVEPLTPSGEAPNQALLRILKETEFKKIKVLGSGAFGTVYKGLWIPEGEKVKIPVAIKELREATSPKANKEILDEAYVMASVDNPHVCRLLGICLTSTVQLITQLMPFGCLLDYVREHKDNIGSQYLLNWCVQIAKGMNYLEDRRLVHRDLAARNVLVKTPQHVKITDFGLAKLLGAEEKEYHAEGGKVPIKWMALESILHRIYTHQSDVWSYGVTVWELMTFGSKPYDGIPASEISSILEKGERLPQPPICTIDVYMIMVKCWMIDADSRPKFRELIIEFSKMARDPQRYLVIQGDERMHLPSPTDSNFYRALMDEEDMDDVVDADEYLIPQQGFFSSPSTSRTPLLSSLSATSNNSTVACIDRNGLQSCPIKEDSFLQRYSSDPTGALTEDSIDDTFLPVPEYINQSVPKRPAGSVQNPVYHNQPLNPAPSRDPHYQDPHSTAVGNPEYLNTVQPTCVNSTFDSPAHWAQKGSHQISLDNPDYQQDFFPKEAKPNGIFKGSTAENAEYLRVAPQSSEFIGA
Value kind: pIC50
Numbers only, as −log10 of the molar value.

| Compound | pIC50 |
| --- | --- |
| O=C(Nc1ccc2ncnc(Nc3cccc(Cl)c3)c2c1)c1ncn2c(=O)n(CCCl)nnc12 | 6.21 |

Next:
Give the value of pIC50 reported for the following: Nc1[nH]cnc1C(=O)Nc1ccc2ncnc(Nc3cccc(Cl)c3)c2c1 [JDF04R]
6.64

----------
Test target: EGFR autophosphorylation in DU145 cells (Homo sapiens, UniProt P00533)
Construct: endogenous in cells
Sequence (P00533 25-1210): as above
Protocol summary: EGFR phosphorylation assay, whole cell (Western blot)
Condition notes: DU145 cells, EGF stimulated, 2 h drug exposure
Value kind: IC50 (µM)
Numbers only, in µM.

Give the value of IC50 reported for the following: `O=C(Nc1ccc2ncnc(Nc3cccc(Cl)c3)c2c1)c1ncn2c(=O)n(CCCl)nnc12`
12

----------
Protocol summary: Dose finding and comparative toxicity study in mice
Format: in vivo
Condition notes: male, CD-1, mouse, in vivo; mice, weight loss over a 14-day period, two animals per group; read-out: maximum tolerated dose
Value kind: MTD at 14 days (mg/kg)
Give bare numbers, in mg/kg.

Give the value of MTD at 14 days reported for the following: `O=C(Nc1ccc2ncnc(Nc3cccc(Cl)c3)c2c1)c1ncn2c(=O)n(CCCl)nnc12`
100
